// data source = PubChem BioAssay AID1159580

- test.summary: chemical genetic growth profiling, strain panel (AID 1159580);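 note: tested at 20 µM; growth read once vehicle control cultures reached saturation at 30 °C; 1 = growth at the plate median or of vehicle wells; lower values mean less growth of the strain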
- test.parameters: S. cerevisiae deletion strains, growth OD, locus YDR101C, strain arx1
In all, about 5,500 compounds went through this assay and about 2,000 (36%) were called active. Inconclusive results (about 18%) are left out. Cut-off read from the data, not from the text of the source: active = normalized growth mostly below about 0.91 (no sharp cut-off); inconclusive = no clear call, values can overlap the other calls; inactive = mostly above about 0.92. This is one part of the list.
Write down one outcome, taken from 1 (yes) (active), 0 (no) (inactive)

Dear all, I need the recorded test outcome for CSc1ccc2c(c1)C(N1CCN(C)CC1)Cc1ccccc1S2 (stereo unspecified) , thank you.
0 (no)

Per the records of this test, what outcome belongs to COc1ccc(-c2cc(=O)c3cc(OC)ccc3o2)cc1 ?
0 (no)

GET /call?item= CN1CCc2c(c3ccccc3n2Cc2ccccc2)C1 returns the recorded outcome of this test.
0 (no)

Which outcome was assigned to CCC(CCC(C)[C@H]1CCC2C3CC=C4C[C@@H](O)CC[C@]4(C)C3CC[C@@]21C)C(C)C (stereo partly specified) in this test?
0 (no)

Assay outcome for CN1CCOC(c2ccccc2)c2ccccc2C1 (stereo unspecified) : what was it?
0 (no)

Please indicate how the test categorized CC1=NCCc2c1[nH]c1cc(O)ccc21 .
0 (no)

Given CCCCCCCCCCCCCCCC[n+]1ccccc1 , state the outcome it received in this test.
1 (yes)

Dear colleague, could you share the recorded outcome for CC(=O)Oc1cc(-c2coc3cc(OC(C)=O)c(OC(C)=O)c(OC(C)=O)c3c2=O)cc(OC(C)=O)c1OC(C)=O when you have a moment?
1 (yes)

Answer briefly: the call reported for CCN(CCCCOC(=O)c1ccc(OC)c(OC)c1)C(C)Cc1ccc(OC)cc1 (stereo unspecified) in this assay.
0 (no)

Which outcome was assigned to O=c1c(-c2cc(O)c(O)c(O)c2)coc2cc(O)c(O)c(O)c12 in this test?
0 (no)

Tell me the assay call for CC(=O)[C@H]1CCC2C3CC=C4C[C@@H](O)CC[C@]4(C)C3CC[C@@]21C (stereo partly specified) please.
0 (no)

###

- test.summary: chemical genetic growth profiling, strain panel (AID 1159580);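 note: tested at 20 µM; growth read once vehicle control cultures reached saturation at 30 °C; 1 = growth at the plate median or of vehicle wells; lower values mean less growth of the strain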
- test.parameters: S. cerevisiae deletion strains, growth OD, locus YGL227W, strain vid30
Screen size: about 5,500 compounds; about 2,000 (36%) were called active. About 18% were inconclusive and are not listed. Rule as the data show it: active = normalized growth mostly below about 0.91 (no sharp cut-off); inconclusive = no clear call, values can overlap the other calls; inactive = mostly above about 0.92. The list shows a part of the results.
Outcomes you can answer with include only these: active, inactive

What did the test return for O=c1c2ccccc2[se]n1-c1ccccc1 ?
active

State the result this test recorded for O=c1c(-c2ccc(O)cc2)coc2cc(O)cc(O)c12 .
inactive

What classification did CN(C)C(=O)Oc1cc(OC(=O)N(C)C)cc(C(O)CNC(C)(C)C)c1 (configuration not stated) end up with in this test?
inactive

Hi, sorry to bother you, what did the test record for O=c1c(-c2ccccc2)coc2cc(O)cc(O)c12 ?
inactive

Status in this test for Nc1nnc(-c2cccc(Cl)c2Cl)c(N)n1 ?
inactive

Check the results log: what was the call for CC(=O)Nc1ccc(OC(=O)c2ccccc2O)cc1 ?
inactive

I'd appreciate the recorded outcome for COC(=O)C1=C(C)NC(C)=C(C(=O)OCCN(C)Cc2ccccc2)C1c1cccc([N+](=O)[O-])c1 (configuration not stated) from this test.
inactive

Can you look up the reported call for Nc1ccc(C(=O)O)c(O)c1 for me?
inactive

Recorded test call requested for CC1=C2C(=CO[C@H](C)[C@H]2C)C(=O)C(C(=O)O)=C1O
inactive

Recorded call for COc1ccc(-c2coc3cc(OC(C)=O)cc(OC(C)=O)c3c2=O)cc1 ?
inactive

In this assay, the call recorded for COCCOC(=O)C1=C(C)NC(C)=C(C(=O)OC(C)C)C1c1cccc([N+](=O)[O-])c1 (configuration not stated) was what?
inactive

Tell me the recorded outcome of this test for CC(=O)Nc1cccc(O)c1 .
inactive
